Measured On: recombinant human Cox-2 (r-hu Cox-2) (Homo sapiens)
Construct: made in house; host or cells: baculovirus/Sf9 insect cells (microsomes)
Assay Procedure: Recombinant human PGHS-2 enzyme assay (RHUCX2)
Assay type: biochemical
Reported Conditions: 0.1 μM
# RHUCX2 % Inh. at Dose (μM) per entry
Recorded Endpoint: RHUCX2 % Inh. at Dose (μM)

# Molecule, Recorded Endpoint, Meas Value
measured = [
    ("CS(=O)(=O)c1ccc(-c2cnn(-c3ccc([N+](=O)[O-])s3)c(=O)c2-c2ccc(F)cc2)cc1 [Example 105]", "RHUCX2 % Inh. at Dose (μM)", "52 @ 0.1%"),
    ("Cc1ccc(-c2c(-c3ccc(S(N)(=O)=O)cc3)cnn(-c3ccc(F)cc3)c2=O)cc1F [Example 387]", "RHUCX2 % Inh. at Dose (μM)", "65 @ 0.1%"),
    ("CS(=O)(=O)c1ccc(-c2cnn(-c3csc4ccccc34)c(=O)c2-c2ccc(F)cc2)cc1 [Example 107]", "RHUCX2 % Inh. at Dose (μM)", "36 @ 0.1%"),
    ("CS(=O)(=O)c1ccc(-c2cnn(CC(F)(F)F)c(=O)c2SC2CCCC2)cc1 [Example 283]", "RHUCX2 % Inh. at Dose (μM)", "54 @ 0.1%"),
    ("CC(C)=CCCOc1c(-c2ccc(S(C)(=O)=O)cc2)cnn(-c2ccc(F)cc2)c1=O [Example 424]", "RHUCX2 % Inh. at Dose (μM)", "58 @ 0.1%"),
]

---

Measured On: human amnionic whole cell cyclooxygenase-2 (WISH cells) (Homo sapiens)
Construct: endogenous in cells
Assay Procedure: IL-1β induced PGE2 production in WISH cells
Reported Conditions: read-out: Wish IC50 (parenthetical value)
Known IC50 of a selection of compounds
Recorded Endpoint: IC50 (nM)

# Compound, Recorded Endpoint, Value Units, Meas Value
measured = [
    ("CC1(COc2c(-c3ccc(S(C)(=O)=O)cc3)cnn(CC(F)(F)F)c2=O)CC1 [Example 279]", "IC50", "nM", 391),
    ("Cc1ccc(-n2ncc(-c3ccc(S(C)(=O)=O)cc3)c(-c3ccc(F)cc3)c2=O)s1 [Example 168]", "IC50", "nM", 9),
    ("CS(=O)(=O)c1ccc(-c2cnn(-c3ccc(Cl)s3)c(=O)c2-c2ccc(Cl)cc2)cc1 [Example 100]", "IC50", "nM", 20),
    ("CS(=O)(=O)c1ccc(-c2cnn(-c3ccc(Cl)cc3)c(=O)c2-c2ccc(F)cc2)cc1 [Example 160]", "IC50", "nM", 30),
    ("CC(C)COc1c(-c2ccc(S(C)(=O)=O)cc2)cnn(-c2cccc(Cl)c2)c1=O [Example 335]", "IC50", "nM", 23),
    ("CC(C)CCOc1c(-c2ccc(S(C)(=O)=O)cc2)cnn(-c2cccc(Cl)c2)c1=O [Example 339]", "IC50", "nM", 26),
    ("CC(C)(O)CCOc1c(-c2ccc(S(C)(=O)=O)cc2)cnn(-c2cccc(Cl)c2)c1=O [Example 475]", "IC50", "nM", 440),
    ("CS(=O)(=O)c1ccc(-c2cnn(Cc3ccc(F)cc3)c(=O)c2-c2ccc(F)cc2)cc1 [Example 20]", "IC50", "nM", 1),
    ("NS(=O)(=O)c1ccc(-c2cnn(CC3=CCCCC3)c(=O)c2-c2ccc(F)cc2)cc1 [Example 145]", "IC50", "nM", 9),
]

---

Item-by-item account of inhibition at 1 µM
Measured On: recombinant human Cox-2 (r-hu Cox-2) (Homo sapiens, UniProt P35354)
Construct: made in house; host or cells: baculovirus/Sf9 insect cells (microsomes)
Assay Procedure: Recombinant human PGHS-2 enzyme assay (RHUCX2)
Type: biochemical
Reported Conditions: 1 μM; read-out: RHUCX2 % Inh. at Dose

# Compound, Value Units, inhibition at 1 µM
rows = [
    ("NS(=O)(=O)c1ccc(-c2cnn(CC(F)=C(F)F)c(=O)c2-c2ccc(F)cc2)cc1 [Example 141]", "%", 99),
    ("CS(=O)(=O)c1ccc(-c2cnn(-c3cccc(Cl)c3)c(=O)c2CCc2ccccc2)cc1 [Example 372]", "%", 88),
    ("CS(=O)(=O)c1ccc(-c2cnn(CC(F)(F)F)c(=O)c2-c2ccc(F)c(Cl)c2)cc1 [Example 54]", "%", 95),
    ("CS(=O)(=O)c1ccc(-c2cnn(C=C(F)C(F)(F)C(F)(F)F)c(=O)c2-c2ccc(F)cc2)cc1 [Example 40]", "%", 97),
    ("CCC(C)CCOc1c(-c2ccc(S(C)(=O)=O)cc2)cnn(-c2ccc(F)c(F)c2)c1=O (centres unmarked) [Example 351]", "%", 91),
    ("NS(=O)(=O)c1ccc(-c2cnn(-c3cccc(Cl)c3)c(=O)c2CCc2ccccc2)cc1 [Example 393]", "%", 85),
    ("NS(=O)(=O)c1ccc(-c2cnn(-c3ccc(F)c(Cl)c3)c(=O)c2-c2ccc(F)cc2)cc1 [Example 401]", "%", 96),
    ("C=C(F)C(F)(F)n1ncc(-c2ccc(S(N)(=O)=O)cc2)c(-c2ccc(F)cc2)c1=O [Example 142]", "%", 96),
]

---

Below: a set of entries, each annotated with reported melting point.

# Record Smiles, melting point
data = [
    ("CS(=O)(=O)c1ccc(-c2cnn(Cc3ccc(F)cc3)c(=O)c2-c2ccc(F)cc2)cc1", "153 to 154 °C"),
    ("CS(=O)(=O)c1ccc(-c2cnn(-c3ccc(F)c(F)c3)c(=O)c2Cc2ccccc2)cc1", "166 to 168 °C"),
    ("CC(C)(O)CCOc1c(-c2ccc(S(C)(=O)=O)cc2)cnn(-c2ccc(Cl)c(Cl)c2)c1=O", "118 to 120 °C"),
    ("CC(C)(C)Sc1c(-c2ccc(S(C)(=O)=O)cc2)cnn(CC(F)(F)F)c1=O", "186 to 189 °C"),
]

---

Measured On: recombinant human Cox-2 (r-hu Cox-2) (Homo sapiens, UniProt P35354)
Construct: made in house; host or cells: baculovirus/Sf9 insect cells (microsomes)
Sequence (P35354 18-604): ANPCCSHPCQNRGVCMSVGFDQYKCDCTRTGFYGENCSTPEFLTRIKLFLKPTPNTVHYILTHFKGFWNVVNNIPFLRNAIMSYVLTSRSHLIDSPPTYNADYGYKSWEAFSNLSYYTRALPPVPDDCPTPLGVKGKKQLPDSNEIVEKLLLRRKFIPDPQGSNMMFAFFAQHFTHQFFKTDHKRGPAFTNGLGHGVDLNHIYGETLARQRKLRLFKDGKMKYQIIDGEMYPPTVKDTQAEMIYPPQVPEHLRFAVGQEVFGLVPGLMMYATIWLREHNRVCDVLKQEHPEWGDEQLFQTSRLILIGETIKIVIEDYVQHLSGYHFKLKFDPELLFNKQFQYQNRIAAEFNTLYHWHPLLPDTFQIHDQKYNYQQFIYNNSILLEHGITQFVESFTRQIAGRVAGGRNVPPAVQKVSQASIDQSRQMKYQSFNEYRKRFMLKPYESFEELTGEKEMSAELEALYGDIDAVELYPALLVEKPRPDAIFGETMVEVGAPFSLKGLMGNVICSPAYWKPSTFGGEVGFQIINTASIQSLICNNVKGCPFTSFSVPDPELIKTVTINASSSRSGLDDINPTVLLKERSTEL
Assay Procedure: Recombinant human PGHS-2 enzyme assay (RHUCX2)
Assay type: biochemical
Reported Conditions: 0.1 μM
Here, each record is paired with measured RHUCX2 % Inh. at Dose (μM) data.
Recorded Endpoint: RHUCX2 % Inh. at Dose (μM)

# Compound, Measured On, Recorded Endpoint, Meas Value
measured = [
    ("CS(=O)(=O)c1ccc(-c2cnn(-c3ccc(F)c(F)c3)c(=O)c2-c2cccs2)cc1 [Example 237]", "recombinant human Cox-2 (r-hu Cox-2) (Homo sapiens, UniProt P35354)", "RHUCX2 % Inh. at Dose (μM)", "89 @ 0.1%"),
    ("CS(=O)(=O)c1ccc(-c2cnn(CC(F)(F)F)c(=O)c2Oc2cc(C(F)(F)F)ccc2F)cc1 [Example 263]", "recombinant human Cox-2 (r-hu Cox-2) (Homo sapiens, UniProt P35354)", "RHUCX2 % Inh. at Dose (μM)", "53 @ 0.1%"),
    ("C=C(C)Cn1ncc(-c2ccc(S(C)(=O)=O)cc2)c(-c2ccc(F)cc2)c1=O [Example 23]", "recombinant human Cox-2 (r-hu Cox-2) (Homo sapiens, UniProt P35354)", "RHUCX2 % Inh. at Dose (μM)", "68 @ 0.1%"),
    ("CS(=O)(=O)c1ccc(-c2cnn(Cc3ccccc3)c(=S)c2-c2ccc(F)cc2)cc1 [Example 32]", "recombinant human Cox-2 (r-hu Cox-2) (Homo sapiens, UniProt P35354)", "RHUCX2 % Inh. at Dose (μM)", "83 @ 0.1%"),
    ("CS(=O)(=O)c1ccc(-c2cnn(-c3ccc(F)cc3)c(=O)c2C#Cc2ccccc2)cc1 [Example 231]", "recombinant human Cox-2 (r-hu Cox-2) (Homo sapiens, UniProt P35354)", "RHUCX2 % Inh. at Dose (μM)", "68 @ 0.1%"),
    ("CS(=O)(=O)c1ccc(-c2cnn(-c3cc(F)cc(F)c3)c(=O)c2-c2ccc(F)cc2)cc1 [Example 180]", "recombinant human Cox-2 (r-hu Cox-2) (Homo sapiens, UniProt P35354)", "RHUCX2 % Inh. at Dose (μM)", "48 @ 0.1%"),
    ("CS(=O)(=O)c1ccc(-c2cnn(-c3ccoc3)c(=O)c2-c2ccc(F)cc2)cc1 [Example 183]", "recombinant human Cox-2 (r-hu Cox-2) (Homo sapiens, UniProt P35354)", "RHUCX2 % Inh. at Dose (μM)", "51 @ 0.1%"),
    ("C#CCn1ncc(-c2ccc(S(C)(=O)=O)cc2)c(-c2ccc(F)cc2)c1=O [Example 48]", "recombinant human Cox-2 (r-hu Cox-2) (Homo sapiens, UniProt P35354)", "RHUCX2 % Inh. at Dose (μM)", "2 @ 0.1%"),
    ("Cc1nn(CC(F)(F)F)c(=O)c(-c2ccc(F)cc2)c1-c1ccc(S(C)(=O)=O)cc1 [Example 64]", "recombinant human Cox-2 (r-hu Cox-2) (Homo sapiens, UniProt P35354)", "RHUCX2 % Inh. at Dose (μM)", "36 @ 0.1%"),
    ("CS(=O)(=O)c1ccc(-c2cnn(Cc3ccc(Cl)s3)c(=O)c2-c2ccc(F)cc2)cc1 [Example 42]", "recombinant human Cox-2 (r-hu Cox-2) (Homo sapiens, UniProt P35354)", "RHUCX2 % Inh. at Dose (μM)", "92 @ 0.1%"),
    ("CS(=O)(=O)c1ccc(-c2cnn(CC(=O)c3ccc(F)cc3F)c(=O)c2-c2ccc(F)cc2)cc1 [Example 41]", "recombinant human Cox-2 (r-hu Cox-2) (Homo sapiens, UniProt P35354)", "RHUCX2 % Inh. at Dose (μM)", "17 @ 0.1%"),
    ("CC(C)CCc1c(-c2ccc(S(C)(=O)=O)cc2)cnn(CC(F)(F)F)c1=O [Example 209]", "recombinant human Cox-2 (r-hu Cox-2) (Homo sapiens, UniProt P35354)", "RHUCX2 % Inh. at Dose (μM)", "55 @ 0.1%"),
    ("Cc1cc(-c2c(-c3ccc(S(N)(=O)=O)cc3)cnn(-c3ccc(F)cc3)c2=O)ccc1F [Example 390]", "recombinant human Cox-2 (r-hu Cox-2) (Homo sapiens, UniProt P35354)", "RHUCX2 % Inh. at Dose (μM)", "60 @ 0.1%"),
    ("CS(=O)(=O)c1ccc(-c2cnn(-c3cccc(Br)c3)c(=O)c2Oc2ccc(F)cc2)cc1 [Example 110]", "recombinant human Cox-2 (r-hu Cox-2) (Homo sapiens, UniProt P35354)", "RHUCX2 % Inh. at Dose (μM)", "50 @ 0.1%"),
    ("NS(=O)(=O)c1ccc(-c2cnn(CC3=CCCCC3)c(=O)c2-c2ccc(F)cc2)cc1 [Example 145]", "recombinant human Cox-2 (r-hu Cox-2) (Homo sapiens, UniProt P35354)", "RHUCX2 % Inh. at Dose (μM)", "86 @ 0.1%"),
    ("COc1ccc(CCOc2c(-c3ccc(S(C)(=O)=O)cc3)cnn(CC(F)(F)F)c2=O)cc1OC [Example 272]", "recombinant human Cox-2 (r-hu Cox-2) (Homo sapiens, UniProt P35354)", "RHUCX2 % Inh. at Dose (μM)", "55 @ 0.1%"),
]
